target: human GluN1/GluN2B NMDA receptors (Homo sapiens); construct: expressed in transfected cells; test: Cell-based calcium flux (FLIPR) assay on cloned human NR1/NR2B ion channels expressed in mammalian cells (standard and HTS buffer variants); conditions: standard assay buffer (0.5 mM MgCl2 dye loading; 137 mM NaCl, 4 mM KCl assay buffer), human GluN1/GluN2B cells, read-out: NR2B IC50 (μM) standard assay;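 note: stable Tet-On inducible cell line, Ca2+ influx triggered by glutamate at about EC40 plus 10 µM glycine, fluorescent dye read-out over 5 min, normalized to control wells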
Sequence (Q13224 27-1484, other chains not shown): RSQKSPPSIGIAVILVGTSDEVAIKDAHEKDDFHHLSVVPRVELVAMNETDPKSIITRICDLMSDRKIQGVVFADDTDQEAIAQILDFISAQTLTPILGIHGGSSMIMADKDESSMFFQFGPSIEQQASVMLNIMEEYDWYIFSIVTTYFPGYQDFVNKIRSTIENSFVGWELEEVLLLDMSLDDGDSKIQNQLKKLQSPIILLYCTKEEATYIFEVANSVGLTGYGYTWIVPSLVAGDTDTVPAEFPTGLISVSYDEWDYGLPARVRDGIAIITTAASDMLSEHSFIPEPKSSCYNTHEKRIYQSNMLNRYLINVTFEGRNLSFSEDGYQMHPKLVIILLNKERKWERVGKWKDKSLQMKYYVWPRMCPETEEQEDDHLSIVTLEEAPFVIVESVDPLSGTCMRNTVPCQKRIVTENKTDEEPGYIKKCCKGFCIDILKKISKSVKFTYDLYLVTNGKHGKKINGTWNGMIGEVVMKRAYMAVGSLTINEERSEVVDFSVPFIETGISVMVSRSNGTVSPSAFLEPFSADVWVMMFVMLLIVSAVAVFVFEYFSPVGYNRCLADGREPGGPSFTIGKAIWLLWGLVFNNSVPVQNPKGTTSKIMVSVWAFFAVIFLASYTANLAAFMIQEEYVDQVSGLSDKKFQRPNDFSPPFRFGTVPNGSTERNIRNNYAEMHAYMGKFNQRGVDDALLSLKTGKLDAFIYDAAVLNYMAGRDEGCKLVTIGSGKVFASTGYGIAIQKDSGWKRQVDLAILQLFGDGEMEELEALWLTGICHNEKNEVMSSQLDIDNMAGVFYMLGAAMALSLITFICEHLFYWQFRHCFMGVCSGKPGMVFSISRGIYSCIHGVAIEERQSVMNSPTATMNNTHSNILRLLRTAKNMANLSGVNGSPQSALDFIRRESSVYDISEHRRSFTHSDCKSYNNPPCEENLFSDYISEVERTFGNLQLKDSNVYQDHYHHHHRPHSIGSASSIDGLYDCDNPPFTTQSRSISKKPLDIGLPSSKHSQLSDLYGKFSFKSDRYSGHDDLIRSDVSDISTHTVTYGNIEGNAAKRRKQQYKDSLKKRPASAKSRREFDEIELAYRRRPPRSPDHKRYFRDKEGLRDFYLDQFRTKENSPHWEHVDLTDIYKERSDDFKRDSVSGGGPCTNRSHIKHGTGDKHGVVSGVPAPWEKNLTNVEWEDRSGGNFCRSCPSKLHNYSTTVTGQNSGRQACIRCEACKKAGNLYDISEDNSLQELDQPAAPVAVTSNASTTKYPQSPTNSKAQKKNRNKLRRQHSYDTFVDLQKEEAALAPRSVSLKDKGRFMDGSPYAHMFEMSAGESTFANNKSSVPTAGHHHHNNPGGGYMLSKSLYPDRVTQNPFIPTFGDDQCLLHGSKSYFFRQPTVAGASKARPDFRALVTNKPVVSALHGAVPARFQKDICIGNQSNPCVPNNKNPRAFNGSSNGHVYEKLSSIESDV
just bin them by IC50: bucket A = under 0.1 µM, bucket B = from 0.1 µM up to 0.9 µM, bucket C = 0.9 µM and over

compoundSmiles: O=c1[nH]c2ncc(-c3cccc(C(F)(F)F)c3)cc2n1Cc1cccc(F)c1
targetOrTestSystem: human GluN1/GluN2B NMDA receptors (Homo sapiens)
labelValue: bucket B
//
compoundSmiles: Cc1cc(-c2cnc3c(c2)n(Cc2ccncn2)c(=O)n3C)ccc1F
targetOrTestSystem: human GluN1/GluN2B NMDA receptors (Homo sapiens)
labelValue: bucket B
//
compoundSmiles: CCC(=O)Cn1c(=O)[nH]c2ncc(-c3ccc(F)c(C)c3F)cc21
targetOrTestSystem: human GluN1/GluN2B NMDA receptors (Homo sapiens)
labelValue: bucket A
//
compoundSmiles: Cn1c(=O)n(CC(=O)N2CCC2)c2cc(-c3ccsc3C(F)(F)F)cnc21
targetOrTestSystem: human GluN1/GluN2B NMDA receptors (Homo sapiens)
labelValue: bucket A
//
compoundSmiles: O=c1[nH]c2ncc(-c3cccc(C(F)F)c3)cc2n1Cc1cncc(F)c1
targetOrTestSystem: human GluN1/GluN2B NMDA receptors (Homo sapiens)
labelValue: bucket A
//
compoundSmiles: Cn1ccc(Cn2c(=O)[nH]c3ncc(-c4ccc(F)cc4F)cc32)n1
targetOrTestSystem: human GluN1/GluN2B NMDA receptors (Homo sapiens)
labelValue: bucket C
//
compoundSmiles: Cc1nccc(Cn2c(=O)n(C)c3ncc(-c4cccc(C(F)(F)F)c4)cc32)n1
targetOrTestSystem: human GluN1/GluN2B NMDA receptors (Homo sapiens)
labelValue: bucket C
//
compoundSmiles: Cn1c(=O)n(Cc2ccccn2)c2cc(-c3cccc(C(F)(F)F)c3)cnc21
targetOrTestSystem: human GluN1/GluN2B NMDA receptors (Homo sapiens)
labelValue: bucket B
